Target: SIX1 homeodomain (reference allele) (human, UniProt Q15475 108-198)
Sequence: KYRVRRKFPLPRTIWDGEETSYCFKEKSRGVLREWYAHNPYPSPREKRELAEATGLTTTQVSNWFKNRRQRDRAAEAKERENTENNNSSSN
Assay: universal protein binding microarray; Universal all-10-mer PBM (8x60K, AMADID 030236), 300 nM GST-tagged protein, Alexa Fluor 488 anti-GST; buffer, salt, pH and temperature not stated (as in Berger); high values mean tight binding
Conditions: protein: ivt; tags: N-terminal GST; dsDNA, one strand shown
In all, about 33,000 sequences were measured (“e-score”: median about -0.053, highest 2% from about 0.38 on). The list comes from a sample in which the highest values are over-represented; it also holds close analogues and randomly drawn sequences.
Field 'label' (enum: Condition met / Condition not met). Set to Condition met when binding signal is strictly under 0.3 E-score; else Condition not met.

biopolymer.sequence	assigned.class
CTCGGATA	Condition not met
ATCTCCGA	Condition met
GATAGTTA	Condition met
ATAAATAT	Condition met
CTCGGATC	Condition not met
ATCGGATA	Condition not met
ATCGGATC	Condition not met
GATAACTA	Condition met
CTTTGATC	Condition met
AAGGTGTC	Condition not met
ATTTGATA	Condition not met
ATCGGACC	Condition met
GTTTGATA	Condition not met
GTTCGATA	Condition not met
ATCGGATG	Condition met
TACCTATA	Condition met
CGATCGCA	Condition met
AATGATAT	Condition not met
TAACACGA	Condition met
ATATCCGA	Condition not met
AAATCCGG	Condition met
CCCGTGTC	Condition met
TATTGGCA	Condition met
ATCGTCAC	Condition met
CAATCCGC	Condition met
AGTAGTAT	Condition not met
CAAAGATC	Condition met
CCCGGAGA	Condition met
ATCATGCA	Condition met
CCTGGATA	Condition not met
AGGTAGAT	Condition met
CTATCCGC	Condition not met
CGAAGATC	Condition met
GTATTTAA	Condition met
CCGGCTCA	Condition met
CCCACTGA	Condition met
CGATGATA	Condition not met
GTCGGATA	Condition not met
TCGTCTCA	Condition met
GTATAGAA	Condition met
CGATGAGA	Condition met
ATCACTAC	Condition met
CACACCAG	Condition met
CTTGGATA	Condition met
ATCCGAGC	Condition met
GATCAACC	Condition not met
GAATCCGA	Condition met
CCGGTGTC	Condition not met
CCGTCTCA	Condition met
ATAGGCGG	Condition met
CAGGTGTC	Condition not met

* * *

Target: SIX1 homeodomain (reference allele) (human, UniProt Q15475 108-198)
Sequence: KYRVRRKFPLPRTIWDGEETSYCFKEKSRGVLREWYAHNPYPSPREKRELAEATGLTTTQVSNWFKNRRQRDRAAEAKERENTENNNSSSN
Assay: universal protein binding microarray; Universal all-10-mer PBM (8x60K, AMADID 030236), 300 nM GST-tagged protein, Alexa Fluor 488 anti-GST; buffer, salt, pH and temperature not stated (as in Berger); high values mean tight binding
Conditions: protein: ivt; tags: N-terminal GST; dsDNA, one strand shown
Over roughly 33,000 sequences, “e-score” has its median near -0.053; the highest 2% begin near 0.38. What follows is part of a selection rich in the highest values, with near analogues and random picks from the rest.
binding signal listing for selected sequences.

biopolymer.sequence	binding signal
ATCCAGTA	0.242 E-score
GACATATA	0.226 E-score
GACATATC	0.386 E-score
ATACCTAA	0.273 E-score
CCGTATAG	0.239 E-score
ACACCTAT	0.26 E-score
ATCCCGTA	0.342 E-score
CTAACACC	0.213 E-score
CACCGGTG	0.196 E-score
ATTATAAT	0.151 E-score
TCTATACA	0.243 E-score
GTCTGGTA	0.151 E-score
AGGTGTCA	0.452 E-score
GATCTTCC	0.246 E-score
ACGATACT	0.439 E-score
ATACCTGC	0.342 E-score
CGTAGATA	0.23 E-score
CGAGATCC	0.325 E-score
CCCTCATC	0.176 E-score
CGAATATC	0.308 E-score
ATGATCGG	0.294 E-score
CTGATACC	0.484 E-score
ACGATCGT	0.154 E-score
ACACCGGG	0.301 E-score
ATGATACG	0.48 E-score
AGGTGTTG	0.236 E-score
ATACGACG	0.191 E-score
TATCTTCA	0.251 E-score
ATATACAA	0.27 E-score
GTGATCTA	0.298 E-score
ATACCTTG	0.335 E-score
GATCGGGC	0.296 E-score
ACACCTAG	0.231 E-score
ATCGTCTC	0.304 E-score
GATTATTA	0.209 E-score
CATCTATA	0.251 E-score
TATTGCGA	0.232 E-score
CGATAGGC	0.175 E-score
ATATGCGC	0.27 E-score
ACAGGGTA	0.267 E-score
ATACCTAT	0.398 E-score
GCGTATCA	0.481 E-score
CGTGTCAG	0.202 E-score
ATCATACG	0.269 E-score
ATACTTGC	0.215 E-score
TACTCGGA	0.162 E-score
CCGTATCG	0.457 E-score
CGTATACC	0.367 E-score
CTCAGGTA	0.16 E-score
GAGCTGGA	0.177 E-score
ATACCGTC	0.396 E-score
ATTGACAC	0.315 E-score
ATCAACAG	0.209 E-score
CACATATA	0.165 E-score
CGCTATAC	0.254 E-score
GACACGGA	0.196 E-score
CTGAGACC	0.261 E-score
GATCTGCA	0.258 E-score
GCGTCTCA	0.209 E-score
GGGTGTAA	0.334 E-score
CGAATACA	0.151 E-score
AGGTGTCG	0.399 E-score
GAAACACC	0.189 E-score
TACATATA	0.254 E-score
ATGATCAG	0.229 E-score
CTCATACC	0.171 E-score
AGGTGTAA	0.165 E-score
GCCTATCA	0.289 E-score
TAAAGATA	0.167 E-score
ATACCGAC	0.341 E-score
AGGTGTAC	0.182 E-score
ATACCTAC	0.385 E-score
ATCTACCG	0.232 E-score
CTGATCGC	0.191 E-score
AGGTGTTA	0.203 E-score
CTGATCCC	0.416 E-score
GATCGAGA	0.295 E-score
AGGTGTAT	0.377 E-score
ACCTATCA	0.336 E-score
AAAATATC	0.154 E-score
CCTATTGA	0.187 E-score
